Data credit: patent US20190185560A1

# tgt: T1, cynomolgus TREM-1-Fc (cynomolgus monkey)
# T1 construct: also called cTREM-1
# T1 chain: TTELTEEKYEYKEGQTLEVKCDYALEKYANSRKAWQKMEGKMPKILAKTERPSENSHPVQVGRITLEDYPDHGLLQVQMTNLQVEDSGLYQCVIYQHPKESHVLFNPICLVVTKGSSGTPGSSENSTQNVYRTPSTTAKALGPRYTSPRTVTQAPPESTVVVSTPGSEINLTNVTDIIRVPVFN
# testName: SPR (ProteOn), antibody captured via anti-Fc, TREM-1-Fc as analyte, 1:1 Langmuir fit, 25 C
valueType: Kd (nM)
Respond with the bare value in nM.

>  <binder>
mAb 0332 (mAb 0170 variant, heavy chain A59Y, light chain E27Q, E97Q) (antibody, human IgG4 S228P, kappa, V domains shown) VH: EVQLVESGGGLVQPGGSLKLSCAASGFTFSTYAMHWVRQASGKGLEWVGRIRTKSSNYYTYYAASVKGRFTISRDDSKNTAYLQMNSLKTEDTAVYYCTRDMGIRRQFAYWGQGTLVTVSS VL: DIVLTQSPDSLAVSLGERATINCRASQSVDTFDYSFLHWYQQKPGQPPKLLIYRASNLESGVPDRFSGSGSGTDFTLTISSLQAEDVAVYYCQQSNQDPYTFGQGTKLEIKR

>  <unitAnnotation>
nM

>  <reading>
4

$$$$
>  <binder>
mAb 0330 (mAb 0170 variant, light chain F32A, E27Q, E97Q) (antibody, human IgG4 S228P, kappa, V domains shown) VH: EVQLVESGGGLVQPGGSLKLSCAASGFTFSTYAMHWVRQASGKGLEWVGRIRTKSSNYATYYAASVKGRFTISRDDSKNTAYLQMNSLKTEDTAVYYCTRDMGIRRQFAYWGQGTLVTVSS VL: DIVLTQSPDSLAVSLGERATINCRASQSVDTADYSFLHWYQQKPGQPPKLLIYRASNLESGVPDRFSGSGSGTDFTLTISSLQAEDVAVYYCQQSNQDPYTFGQGTKLEIKR

>  <unitAnnotation>
nM

>  <reading>
0.1

$$$$

The record that follows has no Kd shown yet.
[Q] I have this binder here, mAb 0322 (mAb 0170 variant, light chain F32A) (antibody, human IgG4 S228P, kappa, V domains shown) VH: EVQLVESGGGLVQPGGSLKLSCAASGFTFSTYAMHWVRQASGKGLEWVGRIRTKSSNYATYYAASVKGRFTISRDDSKNTAYLQMNSLKTEDTAVYYCTRDMGIRRQFAYWGQGTLVTVSS VL: DIVLTQSPDSLAVSLGERATINCRASESVDTADYSFLHWYQQKPGQPPKLLIYRASNLESGVPDRFSGSGSGTDFTLTISSLQAEDVAVYYCQQSNEDPYTFGQGTKLEIKR , and I need its recorded Kd.
[A] 0.1
